system: U2OS; experiment: Incucyte cell viability with U2OS; format: toxicity, cell-based; details: human, 18 h, 10 µM, compound concentration 10 uM, replicate number 1; also: unitless GR value; below 1 slowed growth and below 0 cell loss
Examples of compounds with documented Growth Rate follow.
Recorded Endpoint: Growth Rate

{"Entry Smiles": "COc1ccc(N(C(=O)Nc2c(C)cccc2C)c2cc(Nc3ccc(N4CCN(C)CC4)cc3)ncn2)c(OC)c1", "Recorded Endpoint": "Growth Rate", "Readout Value": 0.25}
{"Entry Smiles": "O=C1N=C(NCc2cccs2)S/C1=C\\c1ccc2ncccc2c1", "Recorded Endpoint": "Growth Rate", "Readout Value": 0.78}
{"Entry Smiles": "CC(C)(C[C@H]1CN(S(=O)(=O)c2cccc(C(F)(F)F)c2)c2cc(-c3cc(F)cc(OC(F)F)c3)ccc2O1)C(=O)O", "Recorded Endpoint": "Growth Rate", "Readout Value": 0.78}
{"Entry Smiles": "CN(C(=O)c1ccccc1)c1ccc2c(c1)nc(NC(=O)c1ccc(Br)s1)n2CCC(N)=O", "Recorded Endpoint": "Growth Rate", "Readout Value": 0.9}
{"Entry Smiles": "COC(=O)c1cc2c(cn1)[nH]c1ccccc12", "Recorded Endpoint": "Growth Rate", "Readout Value": 0.85}
{"Entry Smiles": "COc1ccccc1-c1cc(Nc2cccc(CS(N)(=O)=O)c2)ncn1", "Recorded Endpoint": "Growth Rate", "Readout Value": 0.22}
{"Entry Smiles": "Nc1ncnc2c1c(COc1cccc(Cl)c1)nn2C1CCOCC1", "Recorded Endpoint": "Growth Rate", "Readout Value": 0.81}
{"Entry Smiles": "C[C@H](CCC(=O)O)[C@H]1CC[C@H]2[C@@H]3CC[C@@H]4C[C@H](O)CC[C@]4(C)[C@H]3CC[C@]12C", "Recorded Endpoint": "Growth Rate", "Readout Value": 0.74}
{"Entry Smiles": "CN1CCN(c2ccc(-n3cc(-c4ccncc4OCC4CCNCC4)cn3)cc2)CC1", "Recorded Endpoint": "Growth Rate", "Readout Value": 0.69}

###

Known Growth Rate of a selection of molecules
test system: Fibroblast; experiment: Incucyte cell viability with human fibroblast; type: toxicity, cell-based; settings: 6 h, 10 µM, compound concentration 10 uM, replicate number 1; also: unitless GR value; below 1 slowed growth and below 0 cell loss
Recorded Endpoint: Growth Rate

{"Molecule": "COc1cccc(-c2c(C)c(Cc3c(F)cccc3C(F)(F)F)c3n(c2=O)[C@@H]([C@@H](N)c2ccccc2)CS3)c1F", "Readout Value": 0.51}
{"Molecule": "CC(C)c1nc2c(c3c1[C@H](c1ccc(C(F)(F)F)cc1)OC31CCOCC1)[C@H](O)CC(C)(C)C2", "Readout Value": -0.78}
{"Molecule": "CCc1cncnc1N1CCN(Cc2nc3cc(C(F)(F)F)ccc3[nH]2)CC1", "Readout Value": 1}
{"Molecule": "C=CC(=O)Nc1ccc2[nH]c(=O)n(C3CCN(Cc4ccc(-c5ccc6c(c5)NC(=O)CO6)cc4)CC3)c2c1", "Readout Value": 0.84}
{"Molecule": "COc1cc(C(=O)NCCOCCOCCOCC(=O)N[C@H](C(=O)N2C[C@H](O)C[C@H]2C(=O)NCc2ccc(-c3scnc3C)cc2)C(C)(C)C)ccc1Nc1ncc(C(F)(F)F)c(Oc2cccc3c2C(=O)CC3)n1", "Readout Value": 0.15}
{"Molecule": "Cc1c(-c2cc(-c3ccccc3Cl)no2)cnn1C1CCNCC1.Cl", "Readout Value": 0.11}
{"Molecule": "CCC(=O)O[C@]1(C(=O)CCl)[C@@H](C)C[C@H]2[C@@H]3CCC4=CC(=O)C=C[C@]4(C)[C@@]3(F)[C@@H](O)C[C@@]21C [CLOBETASOL PROPIONATE]", "Readout Value": 0.53}
{"Molecule": "Cl.Cl.N#Cc1ccc(O[C@@H]2c3ccccc3C[C@H]2N2CCC[C@@H](N)C2)c(Cl)c1", "Readout Value": -1}
{"Molecule": "CSc1ccc(C[C@@H](C)C(=O)O)cc1Nc1nc(N2CC[C@H](N(C)C)C2)cc(C(F)F)c1C#N.O=C(O)C(F)(F)F", "Readout Value": -0.12}
{"Molecule": "C[S+](C)[O-] [DIMETHYL SULFOXIDE]", "Readout Value": 0.99}
{"Molecule": "Cc1ccc(NS(=O)(=O)c2ccc3c(c2)C2C=CCC2C(c2ccc(C(=O)O)cc2)N3)cc1C (configuration not stated)", "Readout Value": -0.66}
{"Molecule": "N[C@H](C(=O)O)[C@@H]1CC(Cl)=NO1", "Readout Value": -0.24}
{"Molecule": "COc1cc(OC)c(NC(=O)Nc2cc(C)on2)cc1Cl", "Readout Value": 0.03}
{"Molecule": "C=C[C@@]12CCc3cc(O)ccc3[C@H]1CC[C@@]1(C)[C@H]2CC[C@@H]1O", "Readout Value": 0.24}
{"Molecule": "CCN1CCN(Cc2ccc(C(=O)Nc3ccc(C)c(Oc4ccc5c(c4)CC(=O)N5)c3)cc2C(F)(F)F)CC1.Cl.Cl", "Readout Value": 0.34}
{"Molecule": "C=CC(=O)Nc1cc(-c2nn(C3CCC(N4CCN(C(C)=O)CC4)CC3)c3ncnc(N)c23)ccc1Oc1ccccc1 (configuration not stated)", "Readout Value": -0.52}
{"Molecule": "Cc1n[nH]c2ncc(C(=O)N3CCC[C@H]3c3ccc(Cl)cc3)cc12", "Readout Value": 0.75}

###

test system: U2OS; test: Incucyte cell viability with U2OS; assay type: toxicity, cell-based; conditions: human, 12 h, 10 µM, compound concentration 10 uM, replicate number 2; also: unitless GR value; below 1 slowed growth and below 0 cell loss
Decision: Growth Rate >= 0.9 yields TRUE, all other cases yield FALSE.

{"Molecule": "CN(CCCCCCC1=C(c2cc(F)cc(F)c2)CCCc2cc(O)ccc21)CCCCS(=O)(=O)CCCC(F)(F)F", "Label": "FALSE"}
{"Molecule": "COc1ccccc1-n1nc(C2CC(C)(C)OC(C)(C)C2)cc1-c1ccc(Cl)cc1", "Label": "TRUE"}
{"Molecule": "Cc1nnc2n1-c1sc3c(c1C(c1ccccc1Cl)=NC2)C[C@H](C(=O)N1CCOCC1)C3", "Label": "FALSE"}
{"Molecule": "Cn1cnc(Cn2ccc3ccc(CNCc4[nH]c5ccccc5c4[C@H]4NC(=O)c5ccc(O)cc54)cc32)c1", "Label": "FALSE"}
{"Molecule": "Cc1c(-c2c(F)cc(C(N)=O)c3[nH]c4c(c23)CC[C@H](C(C)(C)O)C4)cccc1-n1c(=O)c2cccc(F)c2n(C)c1=O", "Label": "FALSE"}
{"Molecule": "N#Cc1c(SCc2csc(-c3ccc(Cl)cc3)n2)nc(N2CCCC2)c(C#N)c1-c1ccc(OCCO)cc1", "Label": "FALSE"}
{"Molecule": "NC1=NC(=O)/C(=C2\\CCNC(=O)c3[nH]c4ccccc4c32)N1", "Label": "FALSE"}
{"Molecule": "Cc1cc2c(cc(C(=O)N[C@H](CO)c3ccc(S(=O)(=O)CC(=O)O)cc3)n2C)c(Cl)c1Cl", "Label": "TRUE"}
{"Molecule": "Cc1ccc(C(=O)Nc2cc(N3CCN(C)CC3)cc(C(F)(F)F)c2)cc1-n1cc(-c2cnn(C)c2C)nn1.Cl", "Label": "FALSE"}
{"Molecule": "Cc1cccc(F)c1C(=O)Nc1cnc(-c2cc3c(cc2Cl)OC(F)(F)O3)cn1", "Label": "FALSE"}
{"Molecule": "C=C(F)C(=O)N1CCN(c2nc(OC[C@@H]3CCCN3C)nc3c2CCN(c2cccc4cccc(Cl)c24)C3)C[C@@H]1CC#N", "Label": "FALSE"}
{"Molecule": "N=C(N)NCCC[C@@H](NC(=O)C(c1ccccc1)c1ccccc1)C(=O)NCc1ccc(CNC(N)=O)cc1.O=C(O)C(F)(F)F", "Label": "FALSE"}
{"Molecule": "CCOP(=O)(OCC)C(=Cc1cc(C(C)(C)C)c(O)c(C(C)(C)C)c1)P(=O)(OCC)OCC", "Label": "FALSE"}
{"Molecule": "O=C1NC(Nc2ccccc2)=N/C1=C\\c1ccc2c(c1)OCO2", "Label": "FALSE"}
{"Molecule": "CCn1c(-c2ccncc2)cc2c1CCNC2=O", "Label": "FALSE"}
{"Molecule": "CC(=O)N1CCN([C@H]2CCC[C@@H](NC(=O)c3cc4c(F)ccc(C)c4[nH]3)C2)CC1.O=C(O)C(F)(F)F", "Label": "TRUE"}
{"Molecule": "CC[C@@H](CO)Nc1nc(Nc2cccc(NC(=O)C(C)(C)C)c2)ncc1F", "Label": "FALSE"}
{"Molecule": "C[C@@]1(Cc2ccc(C#N)cc2)C(=O)N(c2cc(Cl)cc(Cl)c2)c2ncc(C(=O)NC3(c4nc(C5CCC5)no4)CC3)n21", "Label": "FALSE"}
{"Molecule": "CNc1nc(NCc2ncccn2)c2c(-c3ccc4ncccc4c3)c[nH]c2n1", "Label": "FALSE"}
{"Molecule": "COc1cc(-c2cc(-c3cccc(O)c3)cnc2N)cc(OC)c1OC", "Label": "TRUE"}
{"Molecule": "CC(=O)O[C@H]1C(=O)[C@@]2(C)[C@H]([C@H](OC(=O)c3ccccc3)[C@]3(O)C[C@H](OC(=O)[C@H](O)[C@@H](NC(=O)c4ccccc4)c4ccccc4)C(C)=C1C3(C)C)[C@]1(OC(C)=O)CO[C@@H]1C[C@@H]2O", "Label": "FALSE"}
{"Molecule": "COc1cc(C(=O)NC2CCN(C)CC2)ccc1Nc1ncc(C(F)(F)F)c(NCc2ccc(C)cc2N(C)S(C)(=O)=O)n1.O=CO.O=CO", "Label": "FALSE"}
{"Molecule": "O=C(O)/C=C/c1ccc(Cn2ccnc2)cc1", "Label": "TRUE"}
{"Molecule": "C[C@@H]1CC[C@@]2(OC1)O[C@H]1[C@@H](O)[C@H]3[C@@H]4CC[C@H]5C[C@@H](O[C@@H]6O[C@H](CO)[C@H](O[C@@H]7O[C@H](CO)C(O)[C@H](O[C@@H]8OC[C@@H](O)[C@H](O)[C@H]8O)[C@H]7O[C@@H]7O[C@H](CO)[C@H](O)[C@H](O[C@@H]8O[C@H](CO)[C@@H](O)[C@H](O)[C@H]8O)[C@H]7O)[C@H](O)[C@H]6O)[C@H](O)C[C@]5(C)[C@H]4CC[C@]3(C)[C@H]1[C@@H]2C (stereo not given in full)", "Label": "FALSE"}
{"Molecule": "FC(F)(F)c1ccccc1-c1cc(C(F)(F)F)c2[nH]c(C3=NOC4(CCCCC4)C3)nc2c1", "Label": "TRUE"}
{"Molecule": "CN(C)c1ncc2cc(-c3ccc(-c4ncccc4F)cc3Cl)c(=O)n(C[C@H]3OC[C@H](N)CO3)c2n1", "Label": "TRUE"}
{"Molecule": "CCS(=O)(=O)Nc1cccc(Oc2cc(F)cc(Nc3ccc(I)cc3F)c2NS(=O)(=O)C2CC2)c1", "Label": "FALSE"}
{"Molecule": "CC(CNS(=O)(=O)C(C)C)c1ccc(-c2ccc(C#N)cc2)cc1 (stereo not given)", "Label": "FALSE"}
